Biological target: T1, IL-4Rα (receptor protein / antigen) (UniProt P24394 26-232, limits assumed)
T1 construct: also called IL-4 receptor subunit α
Assay: BLI (Octet 96), antibody loaded on sensor, antigen in solution
Method: Assay steps: Octet 96 and Data Acquisition software in the supporting computer were run. The bottom and sides of an acquisition probe were cleaned using a lens tissue with an appropriate amount of 75% ethanol, and the instrument was preheated for 15 min or more. Sensor pre-wetting: before the assay, the Sensor was soaked in the SD buffer for 10 min or more for later use. […]
Give measured koff for each item. Keep answers brief.
Numbers only, in s⁻¹.

Worked cases, koff given:
Data request: Read the entry humanized anti-IL-4Rα single domain antibody 4E9-V10 (VHH) VHH: QVQLVESGGGLVQPGGSLRLSCAASGDFYCMAWFRQAPGKEREAVAAIRSGGRSTYYADSVKGRFTISRDNSKNTLYLQMNSLKAEDTAVYYCAVGVDGNCRNYWGQGTLVTVSS and write its reported koff.
Data returned: 0.000534

Data request: Read the entry humanized anti-IL-4Rα single domain antibody 4E9-V13 (VHH) VHH: QVQLVESGGGLVQPGGSLRLSCAASGDFYCMAWFRQAPGKEREAVATIRSGGRSTYYADSVKGRFTISRDNSKNTVYLQMNSLKAEDTAVYYCAVGVDGNCRNYWGQGTLVTVSS and write its reported koff.
Data returned: 0.000565

Data request: Read the entry humanized anti-IL-4Rα single domain antibody 4E9-V6 (VHH) VHH: QVQLVESGGGLVQPGGSLRLSCAASGDFYCMAWFRQAPGKEREAVATIRSGGRSTYYADSVKGRFTISRDNSKNTLYLQMNSLKAEDTAVYYCAVGVDGNCRNYWGQGTLVTVSS and write its reported koff.
Data returned: 0.000506

# next binder below
Data request: Read the entry humanized anti-IL-4Rα single domain antibody 4E9-V12 (VHH) VHH: QVQLVESGGGLVQPGGSLRLSCAASGDFYCMAWFRQAPGKEREAVATIRSGGRSTYLADSVKGRFTISRDNSKNTLYLQMNSLKAEDTAVYYCAVGVDGNCRNYWGQGTLVTVSS and write its reported koff.
Data returned: 0.000268
